Ref: PubChem BioAssay (NCI)

Test system: UO-31 renal
Assay: NCI tumour cell line growth inhibition, 48 h

COMPOUND: CCOC(=O)C(=O)Nc1c(N(CC)CC)n2ccccc2nc1=O
LIMIT_QUALIFIER: >
TGI (µM): 100

COMPOUND: COc1ccc(-c2nc(-c3cn(C)c4ncccc34)cs2)cc1
LIMIT_QUALIFIER: >
TGI (µM): 100

COMPOUND: Cc1ccc2c(N)c(C(=O)N[C@H]3CCc4cc(N5CC6CCC(C5)N6)ccc4C3)sc2n1
LIMIT_QUALIFIER: =
TGI (µM): 3.24

COMPOUND: C[Si](C)(C)OC1c2[nH]c3ccccc3c2CN2C(=O)CCC12 (stereo not given)
LIMIT_QUALIFIER: >
TGI (µM): 100

COMPOUND: O=C(C(Br)Br)C(Br)C(Br)c1ccccc1 (stereo not given)
LIMIT_QUALIFIER: =
TGI (µM): 7.86

---

Tested on: HL-60(TB) leukemia
Assay: NCI tumour cell line growth inhibition, 48 h
Ranges used to classify TGI: low: < 10 µM; medium: ≥ 10 µM and < 50 µM; high: ≥ 50 µM

COMPOUND: c1ccc(CCN(Cc2nc3ccccc3[nH]2)Cc2nc3ccccc3[nH]2)cc1
CLASS_NAME: low

COMPOUND: CN(c1ccccc1)C(c1ccccc1)C(O)c1ccccc1 (stereo not given)
CLASS_NAME: medium

COMPOUND: S=C(N/N=C/c1ccccn1)Nc1ccccn1
CLASS_NAME: low

COMPOUND: CN(C)Cc1ccc(C(=O)Nc2ccc3ncnc(Nc4ccc(Oc5cccc(F)c5)c(Cl)c4)c3c2)cc1
CLASS_NAME: low

COMPOUND: COc1cc2c(/C=C3/C(=O)Nc4ccccc43)c(Cl)n(Cc3ccccc3[N+](=O)[O-])c2cc1C
CLASS_NAME: high

COMPOUND: COc1ccc(-c2nc(-c3ccccc3)c(-c3ccccc3)n2C2CC2)cc1OC1CCCC1
CLASS_NAME: high

COMPOUND: O=c1cc(-c2ccccc2)nc2n1CCN2Cc1ccccc1
CLASS_NAME: high

COMPOUND: CCOC(=O)C1C(=O)c2ccccc2CN1Cc1ccccc1 (stereo not given)
CLASS_NAME: high

COMPOUND: CC[N+](CC)(CC)CCCn1c2c(c3ccccc3c1=O)C(=O)c1ccccc1-2
CLASS_NAME: high

COMPOUND: CCC(=O)COc1ccc(NC(NC(=O)C(C(F)(F)F)C(F)(F)F)(C(F)(F)F)C(F)(F)F)cc1
CLASS_NAME: high

COMPOUND: OC1CC(O)c2c(Cl)sc(Cl)c21 (stereo not given)
CLASS_NAME: high

COMPOUND: Nc1nc(SCc2ccccc2)c2ncn(Cc3ccccc3)c2n1
CLASS_NAME: high

COMPOUND: CC(=O)/C=C/c1ccc(C2CC(C)=Nc3c(ccc4c3C(=O)c3ccccc3C4=O)N2)cc1 (stereo not given)
CLASS_NAME: high

COMPOUND: COc1cccc(-c2nc3c(C(=O)NCCN(C)C)cccc3[nH]2)c1
CLASS_NAME: medium

COMPOUND: O=C(C(Br)Br)C(Br)C(Br)c1ccccc1 (stereo not given)
CLASS_NAME: medium

COMPOUND: CC(=O)CCC[C@@H](C)[C@@H]1O[C@H]([C@@]2(C)CCC(=O)O2)C[C@H]2C(CSc3ccccc3)C(=O)O[C@@H]12 (stereo not given in full)
CLASS_NAME: medium

COMPOUND: CCOC(=O)c1nc2ccc(C(F)(F)F)cc2nc1Oc1ccc(F)cc1
CLASS_NAME: high

COMPOUND: CC(C)/C=N\n1c(N)c(C#N)c(C#N)c1C(C)C
CLASS_NAME: high

COMPOUND: N.N.NC(CS)C(=O)[O-].NC(CS)C(=O)[O-].[Pt+4] (stereo not given)
CLASS_NAME: high
